- assay.notes: clinical
- experimental.parameters: human, in vivo, 330 mg/m2, t1/2
attribute.measured: half-life (h)
Report as a plain number; the unit h is understood.

Given the molecule O=C(CCCCCCC(=O)Nc1ccccc1)NO , what is its reported half-life?
1.89

* * *

- assay.notes: clinical
- experimental.parameters: human, in vivo, 430 mg/m2, Vz
attribute.measured: Vd
Note: a bare number is incomplete; add the unit.

Given the molecule O=C(CCCCCCC(=O)Nc1ccccc1)NO [vorinostat] , what is its reported Vd?
661 L

* * *

- assay.notes: clinical
- experimental.parameters: human, in vivo, 250 mg/m2, t1/2
attribute.measured: half-life (h)
Report as a plain number; the unit h is understood.

Given the compound O=C(CCCCCCC(=O)Nc1ccccc1)NO , what is its reported half-life?
1.48
